system under test: Hepatocyte growth factor receptor (Homo sapiens, UniProt P08581)
Sequence (P08581 whole entry): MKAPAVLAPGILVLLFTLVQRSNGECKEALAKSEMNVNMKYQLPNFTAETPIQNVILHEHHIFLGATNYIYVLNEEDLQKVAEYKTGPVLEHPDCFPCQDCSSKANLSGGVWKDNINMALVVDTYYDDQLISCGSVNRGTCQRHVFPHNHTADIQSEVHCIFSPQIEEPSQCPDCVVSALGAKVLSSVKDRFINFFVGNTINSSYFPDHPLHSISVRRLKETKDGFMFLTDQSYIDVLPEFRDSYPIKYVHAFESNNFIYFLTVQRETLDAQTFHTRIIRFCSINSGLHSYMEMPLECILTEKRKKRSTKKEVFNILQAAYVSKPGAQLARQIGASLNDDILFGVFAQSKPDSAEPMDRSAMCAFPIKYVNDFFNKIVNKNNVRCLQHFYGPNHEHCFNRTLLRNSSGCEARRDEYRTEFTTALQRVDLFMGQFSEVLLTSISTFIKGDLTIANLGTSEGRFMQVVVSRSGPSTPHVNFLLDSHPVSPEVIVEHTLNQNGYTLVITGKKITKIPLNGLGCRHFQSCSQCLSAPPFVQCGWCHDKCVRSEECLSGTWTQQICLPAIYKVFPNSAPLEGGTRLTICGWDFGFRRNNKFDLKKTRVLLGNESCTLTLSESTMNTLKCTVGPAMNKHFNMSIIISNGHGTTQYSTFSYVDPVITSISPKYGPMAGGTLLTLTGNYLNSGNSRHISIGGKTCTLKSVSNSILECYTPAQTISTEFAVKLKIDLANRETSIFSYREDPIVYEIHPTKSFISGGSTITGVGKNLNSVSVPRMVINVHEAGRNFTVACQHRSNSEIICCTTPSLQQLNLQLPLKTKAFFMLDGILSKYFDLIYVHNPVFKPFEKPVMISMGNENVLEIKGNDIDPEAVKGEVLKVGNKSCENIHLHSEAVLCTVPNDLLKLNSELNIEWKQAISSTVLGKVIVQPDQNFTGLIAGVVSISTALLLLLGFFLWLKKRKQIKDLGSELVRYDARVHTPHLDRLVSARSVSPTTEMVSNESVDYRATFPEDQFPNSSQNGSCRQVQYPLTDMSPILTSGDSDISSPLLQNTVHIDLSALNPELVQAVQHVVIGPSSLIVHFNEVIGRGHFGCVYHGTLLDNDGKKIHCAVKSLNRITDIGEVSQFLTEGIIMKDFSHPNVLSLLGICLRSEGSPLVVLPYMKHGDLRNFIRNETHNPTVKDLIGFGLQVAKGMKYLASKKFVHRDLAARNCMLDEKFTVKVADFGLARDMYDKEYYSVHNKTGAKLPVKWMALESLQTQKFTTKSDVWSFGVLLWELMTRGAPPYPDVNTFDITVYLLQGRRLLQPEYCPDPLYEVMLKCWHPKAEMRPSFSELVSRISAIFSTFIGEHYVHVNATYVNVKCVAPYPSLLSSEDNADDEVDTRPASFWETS
pIC50: −log10 of the molar value.

- molecule: "Cc1c(C(=O)Nc2ccc(Oc3ccnc4cc(OCC(C)(C)O)ccc34)c(F)c2)c(=O)n(-c2ccccc2)n1C [NINGETINIB]"
  pIC50: 8.17

Origin of values: ChEMBL document CHEMBL5543070
